Where these numbers come from: patent US4242504A

# MIC per entry
system: Staph.aureus MS353 C36
Value expressed in µg/mL; do not type the unit.

Examples with their reported MIC follow.
{"molecule": "CCCC(=O)OC1C(C)OC(OC2C(C)OC(OC3C(CC=O)CC(C)C(O)C=CC=CCC(C)OC(=O)CC(O)C3OC)C(O)C2N(C)C)CC1(C)OC(=O)CC (stereo not shown) [3\"-propionyl LM-A5, 3\"-propionyl leucomycin A5]", "target.system": "Staph.aureus MS353 C36", "MIC [µg/mL]": 0.8}
{"molecule": "CCCC(=O)OC1(C)CC(OC2C(C)OC(OC3C(CC=O)CC(C)C(O)C=CC=CCC(C)OC(=O)CC(O)C3OC)C(O)C2N(C)C)OC(C)C1OC(C)=O (stereo not shown) [4\"-acetyl-3\"-butylyl LM-A5, 4\"-acetyl-3\"-butylyl leucomycin V]", "target.system": "Staph.aureus MS353 C36", "MIC [µg/mL]": 0.8}
{"molecule": "CCCC(=O)OC1C(C)OC(OC2C(C)OC(OC3C(CC=O)CC(C)C(OC(C)=O)C=CC=CCC(C)OC(=O)CC(O)C3OC)C(O)C2N(C)C)CC1(C)OC(C)=O (stereo not shown) [9,3\"-diacetyl LM-A5, 9,3\"-diacetyl leucomycin A5]", "target.system": "Staph.aureus MS353 C36", "MIC [µg/mL]": 0.8}
{"molecule": "CCCC(=O)OC1C(C)OC(OC2C(C)OC(OC3C(CC=O)CC(C)C(O)C=CC=CCC(C)OC(=O)CC(O)C3OC)C(O)C2N(C)C)CC1(C)OC(=O)CCC (stereo not shown) [3\"butylyl LM-A5, 3\"-butylyl leucomycin A5]", "target.system": "Staph.aureus MS353 C36", "MIC [µg/mL]": 0.4}
{"molecule": "CCCC(=O)OC1C(C)OC(OC2C(C)OC(OC3C(CC=O)CC(C)C(O)C=CC=CCC(C)OC(=O)CC(OC(C)=O)C3OC)C(O)C2N(C)C)CC1(C)OC(C)=O (stereo not shown) [3,3\"-diacetyl LM-A5, 3,3\"-diacetylleucomycin A5]", "target.system": "Staph.aureus MS353 C36", "MIC [µg/mL]": 0.8}
{"molecule": "CCCC(=O)OC1C(C)OC(OC2C(C)OC(OC3C(CC=O)CC(C)C(O)C=CC=CCC(C)OC(=O)CC(O)C3OC)C(O)C2N(C)C)CC1(C)O (stereo not shown) [LM-A5, Leucomycin A5, reference compound]", "target.system": "Staph.aureus MS353 C36", "MIC [µg/mL]": 1.6}

Let us examine a further case.
COC1C(OC(C)=O)CC(=O)OC(C)CC=CC=CC(O)C(C)CC(CC=O)C1OC1OC(C)C(OC2CC(C)(O)C(OC(=O)CC(C)C)C(C)O2)C(N(C)C)C1O (stereo not shown) [LM-A3, Leucomycin A3, reference compound] has a reported MIC of 1.6
